Reference for the values: patent US20170210751A1

Biological target: PRMT5/MEP50 (Homo sapiens)
Construct: Flag-PRMT5
Sequence (O14744 with tags, fused parts or gaps): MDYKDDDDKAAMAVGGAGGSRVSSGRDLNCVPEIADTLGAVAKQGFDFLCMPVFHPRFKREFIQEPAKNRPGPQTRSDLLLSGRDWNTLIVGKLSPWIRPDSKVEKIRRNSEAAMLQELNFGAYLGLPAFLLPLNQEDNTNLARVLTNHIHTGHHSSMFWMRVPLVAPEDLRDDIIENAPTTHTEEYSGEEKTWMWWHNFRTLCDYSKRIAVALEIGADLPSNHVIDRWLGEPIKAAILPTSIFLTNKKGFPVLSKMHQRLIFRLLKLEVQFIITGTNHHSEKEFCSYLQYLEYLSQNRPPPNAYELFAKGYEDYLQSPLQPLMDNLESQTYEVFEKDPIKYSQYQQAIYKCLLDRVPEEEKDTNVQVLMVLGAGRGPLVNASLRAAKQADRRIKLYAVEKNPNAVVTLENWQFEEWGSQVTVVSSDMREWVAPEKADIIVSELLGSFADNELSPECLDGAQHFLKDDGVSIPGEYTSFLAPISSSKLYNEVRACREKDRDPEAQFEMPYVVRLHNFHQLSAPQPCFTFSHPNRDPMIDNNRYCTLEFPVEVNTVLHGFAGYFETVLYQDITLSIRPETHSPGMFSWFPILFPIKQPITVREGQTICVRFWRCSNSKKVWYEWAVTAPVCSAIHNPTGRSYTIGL
Sequence (Q9BQA1 with tags, fused parts or gaps partner limits assumed): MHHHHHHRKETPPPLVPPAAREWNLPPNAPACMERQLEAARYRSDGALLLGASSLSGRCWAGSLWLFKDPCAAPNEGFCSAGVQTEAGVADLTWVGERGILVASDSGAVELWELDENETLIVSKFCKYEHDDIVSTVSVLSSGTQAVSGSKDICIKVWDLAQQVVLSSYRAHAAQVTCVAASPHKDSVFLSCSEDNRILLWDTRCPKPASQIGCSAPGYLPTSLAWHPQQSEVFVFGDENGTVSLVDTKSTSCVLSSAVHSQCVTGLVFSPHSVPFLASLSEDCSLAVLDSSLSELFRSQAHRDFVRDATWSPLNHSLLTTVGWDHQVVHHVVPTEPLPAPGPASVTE
Experiment: PRMT5 Biochemical Assay (PRMT5/MEP50 enzyme assay on peptide substrate, 3H-SAM Flashplate)
Conditions: PRMT5/MEP50 4 nM, 3H-SAM 75 nM, peptide 40 nM, 30 min preincubation at 25 degrees Celsius
pIC50: −log10 of the molar value.
QUANTITY KIND: pIC50

# COMPOUND, RESULT
records = [
    ("CC(=O)N1CCC(Nc2cc(C(=O)NC[C@H](O)CN3CCc4sccc4C3)ncn2)CC1", "> 7.00"),
    ("CC(=O)N1CCC(Nc2cc(C(=O)NC[C@H](O)CN3CCc4nc(C)sc4C3)ncn2)CC1", "5.00 to 6.00"),
    ("CC(=O)N1CCC(Nc2cc(C(=O)NC[C@H](O)CN3CCc4[nH]ncc4C3)ncn2)CC1", "5.00 to 6.00"),
    ("O=C(NC[C@H](O)CN1CCc2sccc2C1)c1cc(NC2COC2)ncn1", "> 7.00"),
    ("CC(=O)N1CC(Nc2cc(C(=O)NC[C@H](O)CN3CCc4ncsc4C3)ncn2)C1", "< 5.00"),
    ("CC(=O)N1CC(Nc2cc(C(=O)NC[C@H](O)CN3CCc4oc(C)nc4C3)ncn2)C1", "< 5.00"),
    ("O=C(COc1cccc2cccnc12)NCC(O)CN1CCc2ccncc2C1 (centres unmarked)", "5.00 to 6.00"),
    ("CC(=O)N1CCC(Nc2cc(C(=O)NC[C@H](O)CN3CCc4scc(C)c4C3)ncn2)CC1", "> 7.00"),
]
